Entries with reported % Normalization of Diabetic State, Blood Flow on rat
quantity_name: % Normalization of Diabetic State, Blood Flow (%)

line_notation: CSc1cccc(NC(=O)NCc2cc(C(C)(C)C)c(O)c(C(C)(C)C)c2)c1
numeric_readout: 21.50

line_notation: CSc1ccc(NC(=O)NCc2cc(C(C)(C)C)c(O)c(C(C)(C)C)c2)cc1
numeric_readout: 35.48

line_notation: CC(C)(C)c1cc(CNC(=S)Nc2ccccc2)cc(C(C)(C)C)c1O
numeric_readout: 17.56

line_notation: CSc1ccccc1NC(=O)NCc1cc(C(C)(C)C)c(O)c(C(C)(C)C)c1
numeric_readout: 23.29
